target: full length human TREX1 (Homo sapiens, UniProt Q9NSU2); construct: N-terminally His-Tev tagged full length human TREX1; His-TEV (His tag with TEV site) (N); experiment: TREX1 Biochemical Assay (fluorescence, dsDNA substrate degradation); settings: 150 pM TREX1, 60 nM dsDNA substrate, 25 minutes at room temperature
Sequence (Q9NSU2 whole entry): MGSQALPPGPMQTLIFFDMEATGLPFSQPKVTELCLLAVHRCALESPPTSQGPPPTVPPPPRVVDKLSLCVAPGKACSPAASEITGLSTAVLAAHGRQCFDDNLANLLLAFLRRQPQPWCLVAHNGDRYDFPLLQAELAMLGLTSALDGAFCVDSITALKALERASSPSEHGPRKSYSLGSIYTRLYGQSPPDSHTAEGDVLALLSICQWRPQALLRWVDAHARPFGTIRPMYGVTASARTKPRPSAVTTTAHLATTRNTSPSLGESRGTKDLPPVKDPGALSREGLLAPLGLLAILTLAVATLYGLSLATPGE
pIC50: −log10 of the molar value.
This section presents molecules with their documented pIC50 values.

Example entries begin here.
[
  {
    "MOLECULE": "C[C@H](c1ccccc1)N(C)c1nc(C(=O)Nc2cnoc2)c(O)c(=O)n1C [Example 27]",
    "pIC50": "> 7.00"
  },
  {
    "MOLECULE": "CN(c1nc(C(=O)Nc2cnoc2)c(O)c(=O)n1C)C(c1ccccc1)c1ccccc1C(F)(F)F (single isomer, unassigned) [Example 84]",
    "pIC50": "> 7.00"
  },
  {
    "MOLECULE": "CN(Cc1c(Cl)cccc1Cl)c1nc(C(=O)Nc2cnoc2)c(O)c(=O)n1C [Example 4]",
    "pIC50": "> 7.00"
  },
  {
    "MOLECULE": "CCN(Cc1ccccc1)c1nc(C(=O)Nc2cnoc2)c(O)c(=O)n1C [Example 13]",
    "pIC50": "> 7.00"
  },
  {
    "MOLECULE": "CN(c1nc(C(=O)Nc2cnoc2)c(O)c(=O)n1C)C(c1ccccc1)c1ccccc1C#N (single isomer, unassigned) [Example 86]",
    "pIC50": "> 7.00"
  },
  {
    "MOLECULE": "CN(C)C(=O)c1ccc(CN(C)c2nc(C(=O)Nc3cnoc3)c(O)c(=O)n2C)cc1 [Example 76]",
    "pIC50": "6.00 to 7.00"
  },
  {
    "MOLECULE": "CN(Cc1cccc2c1cnn2C)c1nc(C(=O)Nc2cnoc2)c(O)c(=O)n1C [Example 31]",
    "pIC50": "> 7.00"
  },
  {
    "MOLECULE": "Cc1ncc(C(c2ccccc2Cl)N(C)c2nc(C(=O)Nc3cnoc3)c(O)c(=O)n2C)cn1 (single isomer, unassigned) [Example 82]",
    "pIC50": "< 5.00"
  },
  {
    "MOLECULE": "CN(c1nc(C(=O)Nc2cnoc2)c(O)c(=O)n1C)C1CCCCC1 [Example 72]",
    "pIC50": "6.00 to 7.00"
  },
  {
    "MOLECULE": "CN(c1nc(C(=O)Nc2cnoc2)c(O)c(=O)n1C)C(c1ccccc1)c1ccccc1 [Example 30]",
    "pIC50": "> 7.00"
  }
]

Query (molecule): CN(Cc1cccnc1-c1cccc(Cl)c1)c1nc(C(=O)Nc2cnoc2)c(O)c(=O)n1C [Example 20] ; field requested: pIC50
6.00 to 7.00

Query (molecule): CN(c1nc(C(=O)Nc2cnoc2)c(O)c(=O)n1C)C(c1ccccc1)c1ccccc1Cl (single isomer, unassigned) [Example 39] ; field requested: pIC50
> 7.00

Query (molecule): Cc1nn(C)cc1-c1cncc(CN(C)c2nc(C(=O)Nc3cnoc3)c(O)c(=O)n2C)n1 [Example 79] ; field requested: pIC50
> 7.00

Query (molecule): CN(Cc1ccc(-c2cnn(C)c2)cc1)c1nc(C(=O)Nc2cnoc2)c(O)c(=O)n1C [Example 25] ; field requested: pIC50
> 7.00

Query (molecule): CN(c1nc(C(=O)Nc2cnoc2)c(O)c(=O)n1C)C(C)(c1ccccc1)c1ccccc1 [Example 52] ; field requested: pIC50
> 7.00

Query (molecule): Cc1cc(C(c2ccccc2Cl)N(C)c2nc(C(=O)Nc3cnoc3)c(O)c(=O)n2C)ccn1 (single isomer, unassigned) [Example 89] ; field requested: pIC50
> 7.00

Query (molecule): CCN(c1nc(C(=O)Nc2cnoc2)c(O)c(=O)n1C)C(c1ccccc1)c1ccccc1Cl (single isomer, unassigned) [Example 92] ; field requested: pIC50
> 7.00
